These entries and their values trace back to patent US4826815A.

test.system: human renal renin (Homo sapiens, UniProt P00797)
Construct: human renal renin, free from acid proteolytic activity; from tissue
Sequence (P00797 67-406): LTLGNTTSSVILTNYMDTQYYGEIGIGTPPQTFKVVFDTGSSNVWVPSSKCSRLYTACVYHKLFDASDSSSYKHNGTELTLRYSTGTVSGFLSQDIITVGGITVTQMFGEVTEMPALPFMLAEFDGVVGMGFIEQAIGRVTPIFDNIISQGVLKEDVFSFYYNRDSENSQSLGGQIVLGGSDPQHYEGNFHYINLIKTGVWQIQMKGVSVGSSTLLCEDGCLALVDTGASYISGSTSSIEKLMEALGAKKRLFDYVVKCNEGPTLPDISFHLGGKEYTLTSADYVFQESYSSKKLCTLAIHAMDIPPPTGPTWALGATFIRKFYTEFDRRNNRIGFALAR
assay.protocol: In vitro inhibition of human renal renin; angiotensin I formed measured by radioimmunoassay
Assay type: biochemical
condition.description: @ 10^-5; human renin substrate (angiotensinogen), 37° C., pH 6.0
Parameter threshold = 60%. Response is satisfied when Inhibition meets or exceeds it, else not satisfied.

>  <compound>
CC(C)CC(NC(=O)C(C)NC(=O)C(Cc1ccccc1)NC(=O)OC(C)(C)C)C(O)CSc1ccccc1 (centres unmarked)

>  <test.system>
human renal renin (Homo sapiens, UniProt P00797)

>  <class.assignment>
not satisfied

$$$$

q: Evaluate CC(C)CC(NC(=O)C(C)NC(=O)C(Cc1ccccc1)NC(=O)OC(C)(C)C)C(O)CSCc1ccccc1 (centres unmarked) : Inhibition at minimum 60%?
a: not satisfied

q: Please check the record CC(C)CC(NC(=O)C(C)NC(=O)C(Cc1ccccc1)NC(=O)OC(C)(C)C)C(O)CNc1ccccc1 (centres unmarked) and state if its Inhibition is at or above 60%.
a: not satisfied

q: Given CC(C)CC(NC(=O)C(C)NC(=O)C(Cc1ccccc1)NC(=O)OC(C)(C)C)C(O)C[S+]([O-])C1CCCCC1 (centres unmarked) , state whether its Inhibition is at least 60%.
a: not satisfied

q: Is Inhibition at least 60%? Consider CC(C)CC(NC(=O)C(C)NC(=O)C(Cc1ccccc1)NC(=O)OC(C)(C)C)C(O)CSC1CCCCC1 (centres unmarked)
a: satisfied
